Entry source: patent US11999727B2

IC50 overview
- target_system: PRMT5 (Homo sapiens, UniProt O14744)
- Construct: purchased Viva (custom protein)
- Sequence (O14744 whole entry): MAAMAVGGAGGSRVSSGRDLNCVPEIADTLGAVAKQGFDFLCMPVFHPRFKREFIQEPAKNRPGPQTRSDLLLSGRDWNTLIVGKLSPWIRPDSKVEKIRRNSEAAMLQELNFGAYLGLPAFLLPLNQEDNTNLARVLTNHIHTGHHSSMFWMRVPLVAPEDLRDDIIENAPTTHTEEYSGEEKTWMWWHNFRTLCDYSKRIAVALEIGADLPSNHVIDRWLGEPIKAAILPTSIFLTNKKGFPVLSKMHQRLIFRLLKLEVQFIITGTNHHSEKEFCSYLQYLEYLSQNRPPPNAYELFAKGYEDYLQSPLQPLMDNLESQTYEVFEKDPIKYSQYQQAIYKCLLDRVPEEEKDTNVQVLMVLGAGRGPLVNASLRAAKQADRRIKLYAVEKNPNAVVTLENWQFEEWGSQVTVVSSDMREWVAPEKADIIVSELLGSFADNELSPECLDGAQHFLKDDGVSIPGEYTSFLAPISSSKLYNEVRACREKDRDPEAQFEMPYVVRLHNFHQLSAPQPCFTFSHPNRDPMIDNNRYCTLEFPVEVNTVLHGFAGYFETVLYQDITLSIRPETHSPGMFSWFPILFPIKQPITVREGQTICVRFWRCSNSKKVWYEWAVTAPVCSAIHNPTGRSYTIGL
- Sequence (Q9BQA1 whole entry partner): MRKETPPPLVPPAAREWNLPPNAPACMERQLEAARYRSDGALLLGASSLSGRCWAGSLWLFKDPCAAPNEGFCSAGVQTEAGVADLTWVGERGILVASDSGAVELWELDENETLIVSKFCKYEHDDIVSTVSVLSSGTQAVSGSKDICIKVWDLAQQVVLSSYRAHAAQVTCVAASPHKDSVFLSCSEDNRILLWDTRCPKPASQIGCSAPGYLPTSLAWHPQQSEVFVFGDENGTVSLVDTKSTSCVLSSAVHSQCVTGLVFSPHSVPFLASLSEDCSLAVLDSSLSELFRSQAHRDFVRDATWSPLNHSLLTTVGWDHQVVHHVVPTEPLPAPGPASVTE
- assay_comment: PRMT5 biochemical IC50 assay with MTA as cofactor
- assay_context: PRMT5, MTA as cofactor; read-out: MTA IC50

Consider the reported IC50 for these compounds:
CCc1cc(NC(=O)C(=O)N2C[C@@H](C)CC[C@@H]2c2ccc(N3C[C@H]4CN(C)CC[C@H]4C3)cc2)cnc1N (racemic) [Compound 1287] :: < 50 nM
CCc1cc(NC(=O)C(=O)N2C[C@@H](C)CC[C@@H]2c2ccc3sc(-c4ccncc4)nc3c2)cnc1N [Compound 1194] :: < 50 nM
CCc1cc(NC(=O)C(=O)N2C[C@@H](C)CC[C@@H]2c2ccc(NS(C)(=O)=O)nc2)cnc1N (single isomer, unassigned) [Compound 983] :: > 500 nM
CC(=O)Nc1ccc([C@H]2CC[C@H](C)CN2C(=O)C(=O)Nc2cnc(N)c(C)c2)s1 (single isomer, unassigned) [Compound 717] :: > 500 nM
Cc1cccc([C@H]2CCCCN2C(=O)C(=O)Nc2cnc(N)c(C)c2)c1 (single isomer, unassigned) [Compound 54] :: < 50 nM
C[C@@H]1CC[C@@H](c2ccc(C(N)=O)s2)N(C(=O)C(=O)Nc2cncc(C(N)=O)c2)C1 (single isomer, unassigned) [Compound 792] :: < 50 nM
COc1ncc(NC(=O)C(=O)N2C[C@H](C)CC[C@H]2c2ccc3scnc3c2)cc1C(N)=O (single isomer, unassigned) [Compound 603] :: > 500 nM
NC(=O)c1cncc(NC(=O)C(=O)N2CCC3(CC2)CCS(=O)(=O)CC3)c1 [Compound 195] :: 50 to 500 nM

### Prompt Please give measured IC50 of the following entry: COc1cc(OC)cc([C@@H]2CC[C@@H](C)CN2C(=O)C(=O)Nc2cncc(C(N)=O)c2)c1 (racemic) [Compound 428]
### Response 50 to 500 nM

### Prompt Please give measured IC50 of the following entry: Cc1ccc2cc([C@@H]3CC[C@@H](C)CN3C(=O)C(=O)Nc3cncc(C(N)=O)c3)ccc2n1 (racemic) [Compound 167]
### Response < 50 nM

### Prompt Please give measured IC50 of the following entry: CCc1cc(NC(=O)C(=O)N2C[C@@H](C)CC[C@@H]2c2ccc(N3CCC(CN4CCCC4)CC3)cc2)cnc1N [Compound 1276]
### Response < 50 nM

### Prompt Please give measured IC50 of the following entry: CCc1cc(NC(=O)C(=O)N2C[C@H](C)CC[C@H]2c2ccc(C)nc2)cnc1N (single isomer, unassigned) [Compound 756]
### Response > 500 nM

### Prompt Please give measured IC50 of the following entry: C[C@@H]1CC[C@@H](c2ccc(NCC(F)(F)F)cc2)N(C(=O)C(=O)Nc2cncc(C(N)=O)c2)C1 (single isomer, unassigned) [Compound 455]
### Response < 50 nM

* * *

- target_system: PRMT5 (Homo sapiens, UniProt O14744)
- Construct: purchased Viva (custom protein)
- assay_comment: PRMT5 biochemical IC50 assay with no cofactor
- assay_context: PRMT5, no cofactor; read-out: No Cofactor/rel IC50
endpoint_name: IC50

CCc1cc(NC(=O)C(=O)N2C[C@@H](C)CC[C@@H]2c2ccc3c(c2)CCC(=O)N3)cnc1N (single isomer, unassigned) :: > 500 nM
Cc1cc(NC(=O)C(=O)N2C[C@@H](C)CC[C@@H]2c2cccc(Cl)c2)cnc1N (single isomer, unassigned) :: < 50 nM
Cc1cc(NC(=O)C(=O)N2C[C@@H](C)CC[C@@H]2c2ccc3c(c2)C(=O)NC3)cnc1N (single isomer, unassigned) :: < 50 nM
COc1ncc(NC(=O)C(=O)N2C[C@H](C)CC[C@H]2c2cnc3[nH]ncc3c2)cc1C(N)=O (single isomer, unassigned) :: 50 to 500 nM
CCc1cc(NC(=O)C(=O)N2C[C@@H](C)CC[C@@H]2c2ccc(C(=O)NC)s2)cnc1N (single isomer, unassigned) :: < 50 nM

### Prompt GET IC50 where system = PRMT5 (Homo sapiens, UniProt O14744) and item = COc1ncc(NC(=O)C(=O)N2C[C@@H](C)CC[C@@H]2C2CCCCC2)cc1C(N)=O (single isomer, unassigned)
### Response 50 to 500 nM
